- tested-target: T1, BMPRIa receptor-Fc fusion (UniProt P36894 24-152, limits assumed)
- T1 construct: also called ALK-3
- T1 sequence (P36894 24-152 limits assumed): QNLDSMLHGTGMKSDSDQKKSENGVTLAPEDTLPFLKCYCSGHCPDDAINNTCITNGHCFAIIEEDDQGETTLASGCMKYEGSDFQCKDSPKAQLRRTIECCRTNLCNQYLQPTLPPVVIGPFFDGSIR
- protocol-summary: ELISA-like plate assay, captured BMP-7 from conditioned media, receptor-Fc detection
BMPRIa binding (relative to wild type = 1.0) values, listed per item

Some binders with recorded BMPRIa binding (relative to wild type = 1.0):
Fill blank: measured BMPRIa binding (relative to wild type = 1.0) of the binder BMP-7 variant F73E (ligand, In conditioned media; numbering on mature BMP-7) STGGKQRSQNRSKTPKNQEALRMASVAENSSSDQRQACKKHELYVSFRDLGWQDWIIAPEGYAAYYCEGECAEPLNSYMNATNHAIVQTLVHFINPETVPKPCCAPTQLNAISVLYFDDSSNVILKKYRNMVVRACGCH is ____.
0.55 relative to wild type

Fill blank: measured BMPRIa binding (relative to wild type = 1.0) of the binder BMP-7 variant Q53S (ligand, In conditioned media; numbering on mature BMP-7) STGGKQRSQNRSKTPKNQEALRMASVAENSSSDQRQACKKHELYVSFRDLGWSDWIIAPEGYAAYYCEGECAFPLNSYMNATNHAIVQTLVHFINPETVPKPCCAPTQLNAISVLYFDDSSNVILKKYRNMVVRACGCH is ____.
0.66 relative to wild type

Next:
Fill blank: measured BMPRIa binding (relative to wild type = 1.0) of the binder BMP-7 variant W55A (ligand, In conditioned media; numbering on mature BMP-7) STGGKQRSQNRSKTPKNQEALRMASVAENSSSDQRQACKKHELYVSFRDLGWQDAIIAPEGYAAYYCEGECAFPLNSYMNATNHAIVQTLVHFINPETVPKPCCAPTQLNAISVLYFDDSSNVILKKYRNMVVRACGCH is ____.
0.1 relative to wild type

Fill blank: measured BMPRIa binding (relative to wild type = 1.0) of the binder BMP-7 variant S77E (ligand, In conditioned media; numbering on mature BMP-7) STGGKQRSQNRSKTPKNQEALRMASVAENSSSDQRQACKKHELYVSFRDLGWQDWIIAPEGYAAYYCEGECAFPLNEYMNATNHAIVQTLVHFINPETVPKPCCAPTQLNAISVLYFDDSSNVILKKYRNMVVRACGCH is ____.
0.81 relative to wild type

Fill blank: measured BMPRIa binding (relative to wild type = 1.0) of the binder BMP-7 variant K39A (ligand, In conditioned media; numbering on mature BMP-7) STGGKQRSQNRSKTPKNQEALRMASVAENSSSDQRQACAKHELYVSFRDLGWQDWIIAPEGYAAYYCEGECAFPLNSYMNATNHAIVQTLVHFINPETVPKPCCAPTQLNAISVLYFDDSSNVILKKYRNMVVRACGCH is ____.
3.48 relative to wild type

Fill blank: measured BMPRIa binding (relative to wild type = 1.0) of the binder BMP-7 variant Q53E (ligand, In conditioned media; numbering on mature BMP-7) STGGKQRSQNRSKTPKNQEALRMASVAENSSSDQRQACKKHELYVSFRDLGWEDWIIAPEGYAAYYCEGECAFPLNSYMNATNHAIVQTLVHFINPETVPKPCCAPTQLNAISVLYFDDSSNVILKKYRNMVVRACGCH is ____.
2.3 relative to wild type

Fill blank: measured BMPRIa binding (relative to wild type = 1.0) of the binder BMP-7 variant R129S (ligand, In conditioned media; numbering on mature BMP-7) STGGKQRSQNRSKTPKNQEALRMASVAENSSSDQRQACKKHELYVSFRDLGWQDWIIAPEGYAAYYCEGECAFPLNSYMNATNHAIVQTLVHFINPETVPKPCCAPTQLNAISVLYFDDSSNVILKKYSNMVVRACGCH is ____.
0.32 relative to wild type

Fill blank: measured BMPRIa binding (relative to wild type = 1.0) of the binder BMP-7 variant Q53K (ligand, In conditioned media; numbering on mature BMP-7) STGGKQRSQNRSKTPKNQEALRMASVAENSSSDQRQACKKHELYVSFRDLGWKDWIIAPEGYAAYYCEGECAFPLNSYMNATNHAIVQTLVHFINPETVPKPCCAPTQLNAISVLYFDDSSNVILKKYRNMVVRACGCH is ____.
0.7 relative to wild type

Fill blank: measured BMPRIa binding (relative to wild type = 1.0) of the binder BMP-7 variant Q53D (ligand, In conditioned media; numbering on mature BMP-7) STGGKQRSQNRSKTPKNQEALRMASVAENSSSDQRQACKKHELYVSFRDLGWDDWIIAPEGYAAYYCEGECAFPLNSYMNATNHAIVQTLVHFINPETVPKPCCAPTQLNAISVLYFDDSSNVILKKYRNMVVRACGCH is ____.
2.2 relative to wild type

Fill blank: measured BMPRIa binding (relative to wild type = 1.0) of the binder BMP-7 variant R48E (ligand, In conditioned media; numbering on mature BMP-7) STGGKQRSQNRSKTPKNQEALRMASVAENSSSDQRQACKKHELYVSFEDLGWQDWIIAPEGYAAYYCEGECAFPLNSYMNATNHAIVQTLVHFINPETVPKPCCAPTQLNAISVLYFDDSSNVILKKYRNMVVRACGCH is ____.
0.45 relative to wild type
